All values here come from patent US20030078251A1.

MEASURED_METRIC: melting point

Before answering, review these 5 worked examples.
>>> print(df.to_string())
                                   molecule             result
0  COc1cccc([C@H]2O[C@H](CC(=O)N[C@H](CCSC)C(=O)O)C(=O)N(CC(C)(C)CO)c3ccc(Cl)cc32)c1OC [Example 16]      142 to 143 °C
1  COc1cccc([C@H]2O[C@H](CC(=O)Nc3nc(C(=O)O)cs3)C(=O)N(CC(C)(C)CO)c3ccc(Cl)cc32)c1OC [Example 142]  277.3 to 277.9 °C
2  COc1cccc([C@H]2O[C@H](CC(=O)Nc3ccc4oc(C(=O)O)cc4c3)C(=O)N(CC(C)(C)CO)c3ccc(Cl)cc32)c1OC [Example 81]      171 to 172 °C
3  COc1ccc(CCCCC(=O)O)cc1NC(=O)C[C@H]1O[C@H](c2cccc(OC)c2OC)c2cc(Cl)ccc2N(CC(C)(C)CO)C1=O [Example 139]      136 to 138 °C
4  CCOc1ccc(CCC(=O)O)cc1NC(=O)C[C@H]1O[C@H](c2cccc(OC)c2OC)c2cc(Cl)ccc2N(CC(C)(C)CO)C1=O [Example 49]      151 to 153 °C

The reported value for CCCc1cc(NC(=O)C[C@H]2O[C@H](c3cccc(OC)c3OC)c3cc(Cl)ccc3N(CC(C)(C)CO)C2=O)cc2cc(C(=O)O)oc12 [Example 163] in terms of melting point is 198.5 to 199.5 °C

The reported value for COc1cccc([C@H]2O[C@H](CC(=O)Nc3cc4c(c(C(=O)O)c3)CCCC4)C(=O)N(CC(C)(C)CO)c3ccc(Cl)cc32)c1OC [Example 112] in terms of melting point is 178 to 179 °C

The reported value for COc1cccc([C@H]2O[C@H](CC(=O)NS(=O)(=O)CCCO)C(=O)N(CC(C)(C)CO)c3ccc(Cl)cc32)c1OC [Example 6] in terms of melting point is 133 to 135 °C

The reported value for COc1cccc([C@H]2O[C@H](CC(=O)Nc3ccc4oc(CCC(=O)O)cc4c3)C(=O)N(CC(C)(C)CO)c3ccc(Cl)cc32)c1OC [Example 159] in terms of melting point is 207 to 209 °C

The reported value for COc1cccc([C@H]2O[C@H](CC(=O)Nc3cccc(CCCC(=O)O)c3)C(=O)N(CC(C)(C)CO)c3ccc(Cl)cc32)c1OC [Example 111] in terms of melting point is 119 to 122 °C

The reported value for COc1cccc([C@H]2O[C@H](CC(=O)Nc3cccc(CCCCC(=O)O)c3)C(=O)N(CC(C)(C)CO)c3ccc(Cl)cc32)c1OC [Example 135] in terms of melting point is 117 to 119 °C

The reported value for COc1cccc([C@H]2O[C@H](CC(=O)Nc3ccc(CCCC(=O)O)cc3)C(=O)N(CC(C)(C)CO)c3ccc(Cl)cc32)c1OC [Example 68] in terms of melting point is 194 to 195 °C

The reported value for COc1cc(CCC(=O)O)cc(NC(=O)C[C@H]2O[C@H](c3cccc(OC)c3OC)c3cc(Cl)ccc3N(CC(C)(C)CO)C2=O)c1OC [Example 66] in terms of melting point is 145 to 148 °C
